Data credit: patent US11999727B2

system_tested: PRMT5 (Homo sapiens)
Construct: purchased Viva (custom protein)
Sequence (O14744 whole entry): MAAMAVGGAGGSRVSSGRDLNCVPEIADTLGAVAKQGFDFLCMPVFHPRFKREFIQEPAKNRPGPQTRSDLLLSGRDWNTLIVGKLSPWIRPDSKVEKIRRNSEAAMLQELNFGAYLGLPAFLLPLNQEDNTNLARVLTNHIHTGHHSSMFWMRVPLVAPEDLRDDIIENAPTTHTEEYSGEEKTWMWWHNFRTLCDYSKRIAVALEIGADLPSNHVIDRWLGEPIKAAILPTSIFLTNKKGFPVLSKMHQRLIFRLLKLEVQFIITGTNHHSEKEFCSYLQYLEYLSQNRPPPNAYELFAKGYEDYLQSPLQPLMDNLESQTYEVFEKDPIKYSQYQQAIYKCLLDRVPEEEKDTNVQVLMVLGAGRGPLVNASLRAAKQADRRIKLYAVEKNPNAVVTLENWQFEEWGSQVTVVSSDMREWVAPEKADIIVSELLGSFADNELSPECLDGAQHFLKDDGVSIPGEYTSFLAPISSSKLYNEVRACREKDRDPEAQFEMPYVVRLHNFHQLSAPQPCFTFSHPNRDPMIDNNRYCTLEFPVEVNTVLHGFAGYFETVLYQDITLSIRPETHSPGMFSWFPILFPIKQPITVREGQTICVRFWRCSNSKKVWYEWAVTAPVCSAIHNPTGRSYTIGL
Sequence (Q9BQA1 whole entry partner): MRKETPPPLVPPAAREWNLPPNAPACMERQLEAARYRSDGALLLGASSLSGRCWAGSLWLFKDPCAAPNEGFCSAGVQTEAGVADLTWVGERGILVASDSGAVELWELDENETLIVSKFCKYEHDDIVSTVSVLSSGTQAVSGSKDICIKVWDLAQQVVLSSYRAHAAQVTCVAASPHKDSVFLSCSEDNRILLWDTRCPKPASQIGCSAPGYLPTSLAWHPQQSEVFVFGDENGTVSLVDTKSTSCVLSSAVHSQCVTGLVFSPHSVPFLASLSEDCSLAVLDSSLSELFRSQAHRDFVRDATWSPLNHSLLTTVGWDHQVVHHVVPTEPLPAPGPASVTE
test_name: PRMT5 biochemical IC50 assay with SAM as cofactor
condition_info: PRMT5, SAM as cofactor; read-out: SAM IC50
pIC50: −log10 of the molar value.
I'd be grateful if you could share measured pIC50 for these entries.

Report pIC50 for every entry below.
1. CCc1cc(NC(=O)C(=O)N2C[C@@H](C)CC[C@@H]2c2ccc(N3CCN(C)C[C@@H]3C)nc2)cnc1N (racemic) [Compound 1099]
2. C[C@H]1CC[C@@H](c2cc(F)cc(Cl)c2)N(C(=O)C(=O)Nc2cncc(C(N)=O)c2)C1 (single isomer, unassigned) [Compound 624]

["6.30 to 7.30", "< 6.30"]

Report pIC50 for every entry below.
1. Cc1cc(NC(=O)C(=O)N2C[C@H](C)CC[C@H]2C2CCCN(C)C2)cnc1N (mixture of isomers) [Compound 832]
2. CC(=O)N1CCC(c2cccc([C@H]3CC[C@H](C)CN3C(=O)C(=O)Nc3cnc(N)c(C)c3)c2)CC1 (single isomer, unassigned) [Compound 324]
3. CCc1cc(NC(=O)C(=O)N2C[C@@H](C)CC[C@@H]2c2ccc(N3CCN(C)CC3)cc2)cnc1N (racemic) [Compound 1209]
4. COc1cc([C@H]2CC[C@H](C)CN2C(=O)C(=O)Nc2cnc(N)c(C)c2)ccn1 (single isomer, unassigned) [Compound 538]
5. COc1ncc(NC(=O)C(=O)N2C[C@H](C)CC[C@H]2c2ccc3c(c2)CNC3=O)cc1C(N)=O (single isomer, unassigned) [Compound 749]

1: < 6.30; 2: 6.30 to 7.30; 3: 6.30 to 7.30; 4: < 6.30; 5: 6.30 to 7.30

Report pIC50 for every entry below.
1. Cc1nc2cc([C@H]3CC[C@H](C)CN3C(=O)C(=O)Nc3cncc(C(N)=O)c3)ccc2s1 (single isomer, unassigned) [Compound 702]
2. COc1ncc(NC(=O)C(=O)N2C[C@H](C)CC[C@H]2c2ccc(NC(C)=O)cc2)cc1C(N)=O (single isomer, unassigned) [Compound 760]
3. CNc1nc2cc([C@H]3CC[C@H](C)CN3C(=O)C(=O)Nc3cncc(C(N)=O)c3)ccc2s1 (single isomer, unassigned) [Compound 862]
4. COc1ncc(NC(=O)C(=O)N2C[C@H](C)CC[C@@H]2c2ccccc2)cc1C(N)=O (single isomer, unassigned) [Compound 308]

1. < 6.30
2. 6.30 to 7.30
3. < 6.30
4. 6.30 to 7.30

# pIC50 of Cc1cc(NC(=O)C(=O)N2C[C@H](C)CC[C@H]2c2cc3[nH]ncc3s2)cnc1N (single isomer, unassigned) [Compound 826] = < 6.30
